meta.source: patent US20240115557A1

target: SpCas9 (Streptococcus pyogenes serotype M1); experiment: eGFP disruption assay, SpCas9, U2OS.eGFP.PEST cells; assay type: cell-based; conditions: replicate 2, raw readout
Sequence (Q99ZW2 whole entry): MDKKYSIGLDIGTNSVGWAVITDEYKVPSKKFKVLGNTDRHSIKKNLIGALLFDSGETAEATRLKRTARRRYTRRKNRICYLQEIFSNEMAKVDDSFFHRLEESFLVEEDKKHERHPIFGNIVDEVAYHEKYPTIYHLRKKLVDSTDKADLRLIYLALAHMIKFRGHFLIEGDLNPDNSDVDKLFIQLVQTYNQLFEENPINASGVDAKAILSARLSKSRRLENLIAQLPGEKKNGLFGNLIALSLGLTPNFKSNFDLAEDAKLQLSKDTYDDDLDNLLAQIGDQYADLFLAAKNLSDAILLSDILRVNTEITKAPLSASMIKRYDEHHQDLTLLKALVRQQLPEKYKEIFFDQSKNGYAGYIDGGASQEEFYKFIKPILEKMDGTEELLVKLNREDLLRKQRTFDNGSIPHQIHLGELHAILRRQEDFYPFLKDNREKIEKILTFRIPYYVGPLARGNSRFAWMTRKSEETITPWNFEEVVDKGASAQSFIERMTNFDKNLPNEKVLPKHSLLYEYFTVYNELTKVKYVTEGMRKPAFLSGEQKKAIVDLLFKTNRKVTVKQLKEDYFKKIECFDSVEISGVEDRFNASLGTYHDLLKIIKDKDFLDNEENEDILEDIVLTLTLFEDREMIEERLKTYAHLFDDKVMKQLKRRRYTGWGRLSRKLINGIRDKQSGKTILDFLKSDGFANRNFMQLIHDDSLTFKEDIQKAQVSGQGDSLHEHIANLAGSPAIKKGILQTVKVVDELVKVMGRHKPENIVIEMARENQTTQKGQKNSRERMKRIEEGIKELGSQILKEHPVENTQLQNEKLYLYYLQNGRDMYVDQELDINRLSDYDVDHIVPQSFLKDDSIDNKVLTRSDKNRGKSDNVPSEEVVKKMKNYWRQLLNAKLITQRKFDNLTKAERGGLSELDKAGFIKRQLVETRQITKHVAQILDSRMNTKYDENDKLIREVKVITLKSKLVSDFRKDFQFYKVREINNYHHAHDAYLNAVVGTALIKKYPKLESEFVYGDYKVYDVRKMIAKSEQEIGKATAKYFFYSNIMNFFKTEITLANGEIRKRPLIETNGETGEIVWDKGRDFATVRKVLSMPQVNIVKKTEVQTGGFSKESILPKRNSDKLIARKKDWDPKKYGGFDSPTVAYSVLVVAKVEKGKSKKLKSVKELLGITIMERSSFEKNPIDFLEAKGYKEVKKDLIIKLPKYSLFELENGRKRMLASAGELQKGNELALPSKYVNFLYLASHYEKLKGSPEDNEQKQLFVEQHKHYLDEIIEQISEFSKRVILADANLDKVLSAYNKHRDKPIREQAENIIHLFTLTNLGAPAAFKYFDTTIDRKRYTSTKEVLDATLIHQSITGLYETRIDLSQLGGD
Let's look at some molecules and their measured SpCas9 eGFP disruption Rep2.
Note: the reply should be a number with no unit written.

get_value(item= "Cl.Cl.Fc1cc(-c2cccc3ncc(-c4cnn(C5CCNCC5)c4)nc23)cc(F)c1CN1CCOCC1" , readout=SpCas9 eGFP disruption Rep2) returns 65.516

get_value(item= "O=C(NCc1ccc2c(c1)OCO2)c1cccc(Oc2cc(-c3ccccc3)ncn2)c1" , readout=SpCas9 eGFP disruption Rep2) returns 76.06

get_value(item= "c1ccc(-c2nnc3sc(-c4ccc5c(c4)OCO5)nn23)nc1" , readout=SpCas9 eGFP disruption Rep2) returns 60.482

get_value(item= "O=C(Nc1ccc(F)c(Cl)c1)c1ccc(Oc2ccnc(-c3ccc(F)cc3)n2)cc1" , readout=SpCas9 eGFP disruption Rep2) returns 73.579

get_value(item= "COc1ccc(CCc2nnc3sc(-c4ccncc4)nn23)cc1OC" , readout=SpCas9 eGFP disruption Rep2) returns 55.062

get_value(item= "O=C(O)c1ccc(N2CCN(c3ccccn3)CC2)c(NC(=O)c2ccc(Br)cc2)c1" , readout=SpCas9 eGFP disruption Rep2) returns 57.556

get_value(item= "COc1ccc(Cc2nn3c(-c4cccnc4)nnc3s2)cc1OC" , readout=SpCas9 eGFP disruption Rep2) returns 58.398

get_value(item= "COc1ccc(-c2cc(N3CCN(C(=O)c4ccc(C(C)(C)C)cc4)CC3)ncn2)cc1" , readout=SpCas9 eGFP disruption Rep2) returns 75.755

get_value(item= "Nc1c(C(=O)N2CCCC2)sc(=S)n1Cc1ccccc1" , readout=SpCas9 eGFP disruption Rep2) returns 58.95
